- Tested on: polymorphonuclear leucocytes (PMNL)
- measurement_protocol: Test 1: Release of proteolytic activity from human PMNL
- Assay type: cell-based
- run_parameters: Homo sapiens, PMNL, 1 μM; read-out: Test 1 residual activity (release of proteolytic activity), percent of control
- Protocol: Isolation of polymorphonuclear leucocytes (PMNL) from human peripheral blood for carrying out tests 1 and 2 10 ml of human blood were diluted with 10 ml of HBSS (Serva) and underlaid with 15 ml of Lymphoprep (Dr. Molter GmbH, Heidelberg). […] A white ring, composed of mononuclear cells, is located between these two phases. […] Following the addition of 25 μl of substrate (methoxysuccinyl-[…]-nitroanilide), the extinction of each well was measured at 405 nm after 0, 5, 10, 15, 30 and 60 minutes. […]
Structures can show the parent of a compound that is named as a salt.
The label class 1 is reserved for activity at 1 µM strictly under 90%; class 0 covers values equal to or above it.

molecule	study_system	assigned_label
CC(C)(C)c1cc(-c2noc(CO)c2CO)cc(C(C)(C)C)c1O	polymorphonuclear leucocytes (PMNL)	class 1
CC(C)(C)c1cc(-c2cc(/C=C/C(=O)O)on2)cc(C(C)(C)C)c1O	polymorphonuclear leucocytes (PMNL)	class 1
CC(OC(=O)[C@@H](N)Cc1ccccc1)c1cc(-c2cc(C(C)(C)C)c(O)c(C(C)(C)C)c2)no1 (single isomer, unassigned) [Example 71, hydrochloride]	polymorphonuclear leucocytes (PMNL)	class 1
CC(O)c1cc(-c2cc(C(C)(C)C)c(O)c(C(C)(C)C)c2)no1 (stereo not shown)	polymorphonuclear leucocytes (PMNL)	class 0
